# measured_target: human PHD2 (Homo sapiens (Human))
# Sequence (Q9GZT9 whole entry): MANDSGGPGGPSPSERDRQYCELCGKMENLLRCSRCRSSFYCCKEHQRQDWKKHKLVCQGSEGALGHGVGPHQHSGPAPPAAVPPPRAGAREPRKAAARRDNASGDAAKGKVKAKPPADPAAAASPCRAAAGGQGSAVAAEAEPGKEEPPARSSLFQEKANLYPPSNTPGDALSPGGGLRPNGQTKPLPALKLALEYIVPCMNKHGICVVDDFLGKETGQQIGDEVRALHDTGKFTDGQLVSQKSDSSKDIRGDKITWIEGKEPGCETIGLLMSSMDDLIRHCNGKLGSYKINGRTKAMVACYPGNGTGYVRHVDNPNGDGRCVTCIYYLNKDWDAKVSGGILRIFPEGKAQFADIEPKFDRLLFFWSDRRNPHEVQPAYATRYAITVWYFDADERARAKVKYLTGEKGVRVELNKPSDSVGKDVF
# experiment_summary: Test 2: human PHD2 inhibitory activity, fluorescence polarization assay of HIF-1α peptide proline hydroxylation
# Assay type: biochemical
# test_parameters: test compound's concentration 1 μM; Test 2, fluorescence polarization assay; read-out: Percent inhibition (% at 1 μM)
readout_type: inhibition at 1 µM (%)

Solved cases below.
# compound, unit_annotation, inhibition at 1 µM
measured = [
    ("O=C(O)CNC(=O)C1=C(O)CC2(CCC2)N(Cc2ccc(C3CC3)cc2)C1=O [Ex. 1-236]", "%", 87),
    ("O=C(O)CNC(=O)C1=C(O)CCN(Cc2ccc(Oc3ccc(C4CC4)cn3)cc2)C1=O [Ex. 1-404]", "%", 96),
]

I. O=C(O)CNC(=O)C1=C(O)CC2(CCC2)N(Cc2cnc(-c3ccccc3)s2)C1=O [Ex. 1-131]
II. COc1ccc(CN2CCC(O)=C(C(=O)N[C@@H](C)C(=O)O)C2=O)cc1 [Ex. 9-4]
III. COc1ccc(CN2CCC(O)=C(C(=O)NCCCC(=O)O)C2=O)cc1 [Ex. 9-2]
IV. CC1(C)CC(O)=C(C(=O)NCC(=O)O)C(=O)N1CC1CCN(Cc2ccccc2)CC1 [Ex. 6-26]
V. Cc1cc(CN2C(=O)C(C(=O)NCC(=O)O)=C(O)CC2(C)C)ccc1OC(CF)CF [Ex. 1-189]
Incoming: Reorder: inhibition at 1 µM, max to min. Form field (ranking): labels in requested order.
Outgoing: I, V, II, III, IV
(I: 96%, V: 60%, II: 42%, III: 23%, IV: 16%)
